- Test system: A549 cells
- measurement.description: Cytotoxicity in A549 cells
- Type: cell-based
- condition.label: Homo sapiens; A549 cells, free PADCA; read-out: IC50 value
endpoint.name: IC50

Return reported IC50; argument: CCCCCCCCCCCCCCCC(=O)NC(COC(=O)CCNC(=O)C(Cl)Cl)(COC(=O)CCNC(=O)C(Cl)Cl)COC(=O)CCNC(=O)C(Cl)Cl
~400 µM

----------
- System: HCT116 cells
- measurement.description: Cytotoxicity in HCT116 cells
- Assay type: cell-based
- condition.label: Homo sapiens, HCT-116, 72 h, Table 4, read-out: IC50 (72 h)
pIC50: −log10 of the molar value.
endpoint.name: pIC50

Lookup: pIC50 / HCT116 cells / CN(C)C(=N)N=C(N)N [Meformin, Metformin, reference compound]
< 3.30

----------
- Test system: HCT116 cells
- measurement.description: Cytotoxicity in HCT116 cells
- Format: cell-based
- condition.label: Homo sapiens, HCT-116, read-out: IC50 values
- Source text: Next the cytotoxicity ability of PDCA and PDCA-NPs were studied in A549 and HCT16 cells to evaluate the ability of these new formulations with respect to NaDCA. Next the cytotoxicity ability of PalmMetformin and NPs were studied in A549 and HCT16 cells to evaluate the ability of these new formulations with respect to Meformin.
pIC50: −log10 of the molar value.
endpoint.name: pIC50

Return reported pIC50; argument: CN(C)C(=N)N=C(N)N [Meformin, Metformin, reference compound]
< 3.30

----------
- measurement.description: Stability in 18% rat serum by HPLC
- Assay type: in vitro ADME
- condition.label: 0.5 mg/mL in 18% rat serum
endpoint.name: half-life at 0.5 mg/mL

Return reported half-life at 0.5 mg/mL; argument: O=C(CCCCC[P+](c1ccccc1)(c1ccccc1)c1ccccc1)NC(COC(=O)CCNC(=O)C(Cl)Cl)(COC(=O)CCNC(=O)C(Cl)Cl)COC(=O)CCNC(=O)C(Cl)Cl.[Br-] [Mito-ADCA, TPP-Tris-β-alanino-DCA]
~7 h

----------
- Test system: HCT116 cells
- measurement.description: Cytotoxicity in HCT116 cells
- Type: cell-based
- condition.label: 24 + 48 h, read-out: IC50 (24 + 48 h)
- Excerpt: Next the cytotoxicity ability of PDCA and PDCA-NPs were studied in A549 and HCT16 cells to evaluate the ability of these new formulations with respect to NaDCA. Next the cytotoxicity ability of PalmMetformin and NPs were studied in A549 and HCT16 cells to evaluate the ability of these new formulations with respect to Meformin.
endpoint.name: IC50

Return reported IC50; argument: O=C([O-])C(Cl)Cl.[Na+] [NaDCA, reference compound]
> 20 mM
